Cynomolgous Primary Hepatocytes-splice site editing % 5000 ng/mL values, listed per item
Test system: PCSK9 gene splice site
Assay type: cell-based, cynomolgus monkey
Observed property: Cynomolgous Primary Hepatocytes-splice site editing % 5000 ng/mL (%)

1) GA074: PCSK9 gRNA; protospacer TGCTTACCTGTCTGTGGAAG (SEQ ID NO: 68), splice donor of intron 4 (nucleic acid, listed as RNA; modified_base 1: mod_base = OTHER; note = 2'-O-Methyl-uridine phosphorothioate; modified_base 2: mod_base = OTHER; note = 2'-O-Methyl-guanosine phosphorothioate; modified_ba) guide: TGCTTACCTGTCTGTGGAAGGTTTTAGAGCTAGAAATAGCAAGTTAAAATAAGGCTAGTCCGTTATCAACTTGAAAAAGTGGCACCGAGTCGGTGCTTTT ... 18.7
2) GA087: PCSK9 gRNA for ABE8.8 splice site editing, Human/Cyno (nucleic acid, 2'-O-methyl at 1, 2, other sugars and backbone not given here; further chemistry not fully specified, PCSK9 gRNA for ABE8.8 splice site editing, Human/Cyno) guide: UCACCTGCTCCTGAGGGGCCGTTTTAGAGCTAGAAATAGCAAGTTAAAATAAGGCTAGTCCGTTATCAACTTGAAAAAGTGGCACCGAGTCGGTGCTTTT ... 0.2
3) GA088: PCSK9 gRNA for ABE8.8 splice site editing, Human/Cyno (nucleic acid, 2'-O-methyl at 1, 2, other sugars and backbone not given here; further chemistry not fully specified, PCSK9 gRNA for ABE8.8 splice site editing, Human/Cyno) guide: CCCAGGCTGCAGCTCCCACTGTTTTAGAGCTAGAAATAGCAAGTTAAAATAAGGCTAGTCCGTTATCAACTTGAAAAAGTGGCACCGAGTCGGTGCTTTT ... 24.8
4) GA077: PCSK9 gRNA for ABE8.8 splice site editing, Human/Cyno (nucleic acid, 2'-O-methyl at 1, 2, other sugars and backbone not given here; further chemistry not fully specified, PCSK9 gRNA for ABE8.8 splice site editing, Human/Cyno) guide: UCCCAGGCCTGGAGTTTATTGTTTTAGAGCTAGAAATAGCAAGTTAAAATAAGGCTAGTCCGTTATCAACTTGAAAAAGTGGCACCGAGTCGGTGCTTTT ... 5.4
5) GA072: PCSK9 gRNA for ABE8.8 splice site editing, Human/Cyno (nucleic acid, 2'-O-methyl at 1, 2, other sugars, backbone and T or U not given here; further chemistry not fully specified, PCSK9 gRNA for ABE8.8 splice site editing, Human/Cyno) guide: GGTGGCTCACCAGCTCCAGCGTTTTAGAGCTAGAAATAGCAAGTTAAAATAAGGCTAGTCCGTTATCAACTTGAAAAAGTGGCACCGAGTCGGTGCTTTT ... 2.2
